Listing of recorded IC50 by entry.
assayedTarget: recombinant human NF-kappaB-inducing kinase (NIK/MAP3K14) (Homo sapiens (Human), UniProt Q99558)
Sequence (Q99558 whole entry): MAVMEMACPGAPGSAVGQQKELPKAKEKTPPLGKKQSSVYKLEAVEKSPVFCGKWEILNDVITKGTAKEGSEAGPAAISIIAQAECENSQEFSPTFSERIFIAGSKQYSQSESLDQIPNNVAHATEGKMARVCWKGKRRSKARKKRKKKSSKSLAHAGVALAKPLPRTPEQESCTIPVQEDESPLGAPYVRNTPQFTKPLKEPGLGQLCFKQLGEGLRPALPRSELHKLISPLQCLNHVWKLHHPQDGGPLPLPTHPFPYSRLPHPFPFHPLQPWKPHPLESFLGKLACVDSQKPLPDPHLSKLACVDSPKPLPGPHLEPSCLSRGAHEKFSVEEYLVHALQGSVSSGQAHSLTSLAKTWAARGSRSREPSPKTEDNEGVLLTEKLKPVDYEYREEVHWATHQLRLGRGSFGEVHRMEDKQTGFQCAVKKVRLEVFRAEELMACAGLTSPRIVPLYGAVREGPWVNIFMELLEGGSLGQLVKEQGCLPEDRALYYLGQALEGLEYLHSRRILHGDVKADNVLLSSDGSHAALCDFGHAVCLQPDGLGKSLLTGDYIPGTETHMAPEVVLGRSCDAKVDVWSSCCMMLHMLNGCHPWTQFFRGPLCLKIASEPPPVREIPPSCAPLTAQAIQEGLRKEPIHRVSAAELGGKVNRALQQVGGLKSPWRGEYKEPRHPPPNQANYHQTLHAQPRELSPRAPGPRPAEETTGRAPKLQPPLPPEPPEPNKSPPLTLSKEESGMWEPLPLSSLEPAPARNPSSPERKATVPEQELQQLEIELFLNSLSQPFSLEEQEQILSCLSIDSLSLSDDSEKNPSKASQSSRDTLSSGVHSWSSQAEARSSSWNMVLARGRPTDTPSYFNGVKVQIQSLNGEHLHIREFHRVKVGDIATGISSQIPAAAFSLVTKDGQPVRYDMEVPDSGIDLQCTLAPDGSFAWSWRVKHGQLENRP
methodSummary: Inhibition of auto-phosphorylation of recombinant human NIK/MAP3K14 activity (AlphaScreen)
Type: biochemical
appliedConditions: averaged values over all measurements on all batches
Please give a number only; it is taken to be in nM.

1) Cc1cc(Nc2nccc(-c3cc(C#N)c4c(c3)C(C)(CO)CN4)n2)n(CC2CCN(CC(=O)N(C)C)CC2)n1 (stereo not drawn) :: 7.2

# ---- query compound ----
Request: Entry COCCn1nc(C)cc1Nc1nccc(-c2cc(C#N)c3c(c2)C(C)(CO)CN3)n1 (stereo not drawn) : reported IC50 = ?
Result: 7.1
